Values compiled from patent US20240209100A1.

# Study system: T1, IL-18 receptor (IL-18Rα/IL-18Rβ) overexpressed on HEK-Blue IL-18 cells (Homo sapiens (Human), UniProt Q13478 19-541; O95256 20-599)
# T1 sequence 1: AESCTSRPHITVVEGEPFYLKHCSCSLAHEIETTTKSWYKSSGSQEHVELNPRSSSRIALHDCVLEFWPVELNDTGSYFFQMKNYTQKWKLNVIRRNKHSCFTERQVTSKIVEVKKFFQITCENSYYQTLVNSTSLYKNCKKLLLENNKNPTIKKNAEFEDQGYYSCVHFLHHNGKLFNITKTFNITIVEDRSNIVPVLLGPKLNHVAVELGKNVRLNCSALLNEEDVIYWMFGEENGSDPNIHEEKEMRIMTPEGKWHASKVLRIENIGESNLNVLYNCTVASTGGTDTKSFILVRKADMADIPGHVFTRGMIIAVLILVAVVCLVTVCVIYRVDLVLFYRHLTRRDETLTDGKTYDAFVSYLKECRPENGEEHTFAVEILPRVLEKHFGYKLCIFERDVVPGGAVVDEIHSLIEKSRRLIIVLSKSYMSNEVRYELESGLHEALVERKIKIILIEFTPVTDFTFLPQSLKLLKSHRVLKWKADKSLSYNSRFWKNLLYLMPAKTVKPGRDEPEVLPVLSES
# T1 sequence 2: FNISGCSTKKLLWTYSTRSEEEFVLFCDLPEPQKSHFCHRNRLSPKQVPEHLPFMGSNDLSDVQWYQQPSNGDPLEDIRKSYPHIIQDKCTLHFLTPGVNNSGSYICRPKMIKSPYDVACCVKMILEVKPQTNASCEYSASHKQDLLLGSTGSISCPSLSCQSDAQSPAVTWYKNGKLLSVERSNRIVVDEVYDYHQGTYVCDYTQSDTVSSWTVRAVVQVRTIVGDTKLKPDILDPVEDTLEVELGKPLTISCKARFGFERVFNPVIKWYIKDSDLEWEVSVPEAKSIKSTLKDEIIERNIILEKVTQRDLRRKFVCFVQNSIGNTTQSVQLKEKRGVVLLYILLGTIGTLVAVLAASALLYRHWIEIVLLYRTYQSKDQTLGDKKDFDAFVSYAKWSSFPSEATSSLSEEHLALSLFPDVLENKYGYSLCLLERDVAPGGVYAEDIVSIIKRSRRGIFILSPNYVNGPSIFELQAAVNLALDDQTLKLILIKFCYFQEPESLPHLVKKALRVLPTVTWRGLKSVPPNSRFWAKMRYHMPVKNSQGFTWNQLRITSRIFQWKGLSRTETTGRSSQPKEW
# Assay details: cell-based or functional assay
Measurement type: HEK-Blue IL-18: Abs405 (Emax) (Abs)

| Binder | Measurement type | Unit abbreviation | Reported result |
| --- | --- | --- | --- |
| DGL061 (bispecific antibody, V domains shown) V domain 1: QVQLQESGGGLVQPGGSLRLSCAASGNIFRATGMGWYRQAPGKWRELVARISSTGSPNYVDFVKGRFTISRDNAKNTLYLQMNSLKPDDTAVYYCNTVGTTLFAWGQGTQVTVSS V domain 2: QVQLQESGGGLVQPGGSLGLSCAASGIKISVNSMAWYRQAPGERREMVAVISSGGSAVYADSVKGRFTISRDNAKNMVYLQMNSLKPEDTAVYYCHPGSAAYRDYWGQGTQVTVSS | HEK-Blue IL-18: Abs405 (Emax) | Abs | 0.47 |
| DGL079 (bispecific antibody, V domains shown) V domain 1: EVQLVESGGGLVQAGGSLRLSCAASGRTFSNYDMGWFRQAPEKEREFVAVISGPGGIAFYGDSVKGRFTISRDNTKNTVYLQMNRLKSEDTAVYYCAAAPRGSYYRRTNSYDYWGQGTQVTVSS V domain 2: EVQLVESGGGVAQAGGSLRLSCAASITSFSLNTMGYYRQLPGKQRELVAVESSSGITNYADSVKGRFTISRDGAKNTVFLQMNSLTPEDTAVYYCGGKLFGRDFWGQGTQVTVSS | HEK-Blue IL-18: Abs405 (Emax) | Abs | 0.32 |
| DGL062 (bispecific antibody, V domains shown) V domain 1: QVQLQESGGGLVQPGGSLRLSCAASGSIFSTKGLGWYRQAPGEQRELVAGISSAGWIFYTQSVKGRFTMSRDNAKNTVYLQMNSLKPEDTAVYYCNSAQSGVPLRSWGQGTQVTVAS V domain 2: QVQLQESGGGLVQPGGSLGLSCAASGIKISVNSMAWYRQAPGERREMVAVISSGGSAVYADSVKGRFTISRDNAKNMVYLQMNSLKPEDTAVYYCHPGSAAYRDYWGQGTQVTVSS | HEK-Blue IL-18: Abs405 (Emax) | Abs | 0.88 |
